// data source = patent US20210347727A1

Tested on: calpain activity in SH-SY5Y cells
protocol text: SH-SY5Y cellular calpain activity, Suc-LLVY-AMC fluorescence assay
Format: cell-based
conditions: Suc-LLVY-AMC substrate
reported metric: IC50

{"columns": ["molecule", "reported metric", "obs value"],
 "data": [
  ["NC(=O)C(=O)[C@H](Cc1ccccc1)NC(=O)c1c(F)cccc1C(F)(F)F", "IC50", "> 25 µM"],
  ["COc1ccc(F)c(C(=O)NC(C=O)Cc2ccccc2)c1Cl (stereo not drawn)", "IC50", "< 10 µM"],
  ["NC(=O)C(=O)[C@H](Cc1ccccc1)NC(=O)c1ccc(F)cc1 [Compound 4]", "IC50", "10 to 25 µM"],
  ["Cn1c2ccccc2c2c(C(=O)NC(Cc3ccccc3)C(=O)C(N)=O)cccc21 (stereo not drawn)", "IC50", "< 10 µM"],
  ["NC(=O)C(=O)[C@H](Cc1ccccc1)NC(=O)c1c(F)cccc1I", "IC50", "< 10 µM"],
  ["NC(=O)C(=O)[C@H](Cc1ccccc1)NC(=O)c1ccc(F)cc1 [Compound 28]", "IC50", "< 10 µM"],
  ["O=CC(Cc1ccccc1)NC(=O)c1c(F)cccc1C(F)(F)F (stereo not drawn)", "IC50", "10 to 25 µM"],
  ["COc1ccc(Cl)cc1C(=O)NC(C=O)Cc1ccccc1 (stereo not drawn)", "IC50", "> 25 µM"],
  ["NC(=O)C(=O)[C@H](Cc1ccccc1)NC(=O)c1ccc(-c2ccccc2)cc1", "IC50", "< 10 µM"],
  ["NC(=O)C(=O)C(Cc1ccccc1)NC(=O)N1c2ccccc2Oc2ccccc21 (stereo not drawn)", "IC50", "> 25 µM"],
  ["O=CC(Cc1ccccc1)NC(=O)c1cccc2c1Oc1ccccc1O2 (stereo not drawn)", "IC50", "> 25 µM"],
  ["NC(=O)C(=O)[C@H](Cc1ccccc1)NC(=O)c1ccccc1Br", "IC50", "< 10 µM"],
  ["O=CC(Cc1ccccc1)NC(=O)c1c(Cl)cccc1Cl (stereo not drawn)", "IC50", "< 10 µM"],
  ["NC(=O)C(=O)[C@H](Cc1ccccc1)NC(=O)c1c(F)cccc1F", "IC50", "10 to 25 µM"],
  ["O=C(NC1CC1)C(=O)[C@H](Cc1ccccc1)NC(=O)c1c(Cl)cccc1Cl", "IC50", "< 10 µM"],
  ["NC(=O)C(=O)[C@H](Cc1ccccc1)NC(=O)c1c(Cl)cccc1C(F)(F)F", "IC50", "> 25 µM"],
  ["Cc1ccc(F)c(C(=O)N[C@@H](Cc2ccccc2)C(=O)C(N)=O)c1Cl", "IC50", "< 10 µM"],
  ["COc1ccc(Br)cc1C(=O)N[C@@H](Cc1ccccc1)C(=O)C(N)=O", "IC50", "< 10 µM"]
]}

###

target of assay: Human Calpain 1/NS1 (Homo sapiens, UniProt P07384)
Sequence (P07384 whole entry, one chain of several): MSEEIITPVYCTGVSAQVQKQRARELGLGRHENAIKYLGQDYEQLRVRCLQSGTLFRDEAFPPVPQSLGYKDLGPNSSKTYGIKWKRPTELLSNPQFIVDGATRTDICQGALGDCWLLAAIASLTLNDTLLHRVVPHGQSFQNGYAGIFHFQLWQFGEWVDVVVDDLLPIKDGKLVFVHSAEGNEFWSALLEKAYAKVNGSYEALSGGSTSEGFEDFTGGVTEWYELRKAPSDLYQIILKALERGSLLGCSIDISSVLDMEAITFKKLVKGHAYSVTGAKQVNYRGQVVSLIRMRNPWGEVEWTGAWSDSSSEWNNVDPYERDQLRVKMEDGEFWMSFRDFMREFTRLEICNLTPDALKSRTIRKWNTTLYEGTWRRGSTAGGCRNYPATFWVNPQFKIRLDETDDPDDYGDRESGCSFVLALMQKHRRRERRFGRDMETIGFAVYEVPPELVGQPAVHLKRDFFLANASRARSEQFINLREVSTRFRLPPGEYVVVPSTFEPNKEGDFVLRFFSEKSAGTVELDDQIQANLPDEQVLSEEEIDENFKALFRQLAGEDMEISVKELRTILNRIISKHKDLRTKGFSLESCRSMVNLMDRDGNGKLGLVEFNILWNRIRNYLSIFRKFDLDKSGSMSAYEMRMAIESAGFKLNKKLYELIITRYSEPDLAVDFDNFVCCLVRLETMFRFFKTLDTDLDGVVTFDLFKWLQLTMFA
protocol text: Biochemical inhibition of calpain 1, continuous fluorescence (FRET substrate) assay
conditions: mean; read-out: Human Calpain 1/NS1 IC50 (nM)_MEAN
Each item that follows carries a reported IC50.
reported metric: IC50

{"columns": ["molecule", "obs value"],
 "data": [
  ["NC(=O)C(=O)[C@H](Cc1ccccc1)NC(=O)c1c(Cl)cccc1C(F)(F)F", "< 3000 nM"],
  ["O=CC(Cc1ccccc1)NC(=O)c1c(Cl)ccc2ccccc12 (centres unmarked)", "< 3000 nM"],
  ["NC(=O)C(=O)[C@H](Cc1ccccc1)NC(=O)c1c(Cl)cccc1Br", "< 3000 nM"],
  ["NC(=O)C(=O)C(Cc1ccccc1)NC(=O)n1c2ccccc2c2ccccc21 (centres unmarked)", "3000 to 10000 nM"],
  ["NC(=O)C(=O)[C@H](Cc1ccccc1)NC(=O)c1c(C(F)(F)F)cccc1C(F)(F)F", "< 3000 nM"],
  ["NC(=O)C(=O)[C@H](Cc1ccccc1)NC(=O)c1cc(F)c(Cl)cc1Cl", "< 3000 nM"],
  ["NC(=O)C(=O)C(Cc1ccccc1)NC(=O)c1ccc2c(c1)OCO2 (centres unmarked)", "3000 to 10000 nM"],
  ["COc1ccc(F)c(C(=O)N[C@@H](Cc2ccccc2)C(=O)C(N)=O)c1Cl", "< 3000 nM"],
  ["Cc1ccc(F)c(C(=O)NC(C=O)Cc2ccccc2)c1Cl (centres unmarked)", "< 3000 nM"],
  ["NC(=O)C(=O)[C@H](Cc1ccccc1)NC(=O)c1ccc(F)cc1 [Compound 4]", "> 10000 nM"],
  ["NC(=O)C(=O)C(Cc1ccccc1)NC(=O)c1c(Cl)ccc2ccccc12 (centres unmarked)", "< 3000 nM"],
  ["Cn1c2ccccc2c2c(C(=O)NC(Cc3ccccc3)C(=O)C(N)=O)cccc21 (centres unmarked)", "< 3000 nM"],
  ["COc1ccc(Cl)cc1C(=O)NC(C=O)Cc1ccccc1 (centres unmarked)", "3000 to 10000 nM"],
  ["COc1ccc(Cl)cc1C(=O)N[C@@H](Cc1ccccc1)C(=O)C(N)=O", "< 3000 nM"],
  ["Cc1ccc(Cl)c(C(=O)N[C@@H](Cc2ccccc2)C(=O)C(N)=O)c1F", "< 3000 nM"],
  ["O=CC(Cc1ccccc1)NC(=O)c1cccc2c1oc1ccccc12 (centres unmarked)", "3000 to 10000 nM"],
  ["NC(=O)C(=O)C(Cc1ccccc1)NC(=O)C1c2ccccc2Oc2ccccc21 (centres unmarked)", "< 3000 nM"]
]}

###

target of assay: Human Calpain 9/NS1 (Homo sapiens, UniProt O14815)
Sequence (O14815 1-690): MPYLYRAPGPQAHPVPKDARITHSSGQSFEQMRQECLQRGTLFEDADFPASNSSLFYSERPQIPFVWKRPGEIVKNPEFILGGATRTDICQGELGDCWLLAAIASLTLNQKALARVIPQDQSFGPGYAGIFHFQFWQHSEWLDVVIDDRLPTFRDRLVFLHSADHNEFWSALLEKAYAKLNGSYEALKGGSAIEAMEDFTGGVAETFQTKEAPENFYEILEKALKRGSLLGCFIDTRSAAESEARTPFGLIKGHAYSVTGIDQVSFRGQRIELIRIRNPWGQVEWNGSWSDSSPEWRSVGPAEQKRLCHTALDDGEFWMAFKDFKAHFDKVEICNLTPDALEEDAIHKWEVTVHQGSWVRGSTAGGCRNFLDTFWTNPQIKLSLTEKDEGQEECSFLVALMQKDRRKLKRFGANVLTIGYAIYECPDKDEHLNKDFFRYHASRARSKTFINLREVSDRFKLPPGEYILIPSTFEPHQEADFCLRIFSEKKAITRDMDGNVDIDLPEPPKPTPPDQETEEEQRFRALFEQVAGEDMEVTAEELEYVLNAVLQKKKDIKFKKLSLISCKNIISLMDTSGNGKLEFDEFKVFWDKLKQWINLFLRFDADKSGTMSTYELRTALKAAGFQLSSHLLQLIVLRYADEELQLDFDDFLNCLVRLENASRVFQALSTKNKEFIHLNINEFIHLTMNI
Sequence (P04632 1-268 partner): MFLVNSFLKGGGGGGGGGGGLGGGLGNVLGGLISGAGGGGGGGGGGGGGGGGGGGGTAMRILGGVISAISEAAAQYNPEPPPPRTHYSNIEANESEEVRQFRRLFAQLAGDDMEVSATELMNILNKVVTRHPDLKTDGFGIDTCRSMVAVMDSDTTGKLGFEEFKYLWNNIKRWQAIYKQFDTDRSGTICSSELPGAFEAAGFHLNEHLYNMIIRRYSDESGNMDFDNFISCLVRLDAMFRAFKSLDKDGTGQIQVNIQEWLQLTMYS
protocol text: Biochemical inhibition of calpain 9, continuous fluorescence (FRET substrate) assay
conditions: mean; read-out: Human Calpain 9/NS1 IC50 (nM)_MEAN
Measured IC50 by item

{"columns": ["molecule", "IC50"],
 "data": [
  ["O=C(NC1CC1)C(=O)[C@H](Cc1ccccc1)NC(=O)c1c(Cl)cccc1Cl [Compound 2]", "< 3000 nM"],
  ["NC(=O)C(=O)C(Cc1ccccc1)NC(=O)c1cccc(F)c1 (centres unmarked) [Compound 25]", "< 3000 nM"],
  ["NC(=O)C(=O)[C@H](Cc1ccccc1)NC(=O)c1ccccc1Br [Compound 36]", "< 3000 nM"],
  ["O=CC(Cc1ccccc1)NC(=O)c1c(Cl)cccc1Cl (centres unmarked) [Compound 45]", "< 3000 nM"],
  ["NC(=O)C(=O)[C@H](Cc1ccccc1)NC(=O)c1ccc(-c2ccccc2)cc1 [Compound 23]", "> 10000 nM"],
  ["NC(=O)C(=O)[C@H](Cc1ccccc1)NC(=O)c1ccc(F)cc1 [Compound 4]", "3000 to 10000 nM"],
  ["Cc1ccc(Cl)c(C(=O)N[C@@H](Cc2ccccc2)C(=O)C(N)=O)c1F [Compound 31]", "< 3000 nM"],
  ["NC(=O)C(=O)C(Cc1ccccc1)NC(=O)N1c2ccccc2Oc2ccccc21 (centres unmarked) [Compound 6]", "> 10000 nM"],
  ["COc1ccc(Br)cc1C(=O)N[C@@H](Cc1ccccc1)C(=O)C(N)=O [Compound 35]", "< 3000 nM"],
  ["NC(=O)C(=O)C(Cc1ccccc1)NC(=O)c1cccc2c1Oc1ccccc1O2 (centres unmarked) [Compound 7]", "< 3000 nM"],
  ["NC(=O)C(=O)[C@H](Cc1ccccc1)NC(=O)c1c(Cl)cccc1C(F)(F)F [Compound 19]", "< 3000 nM"],
  ["NC(=O)C(=O)[C@H](Cc1ccccc1)NC(=O)c1cc(Br)ccc1Cl [Compound 34]", "< 3000 nM"],
  ["NC(=O)C(=O)C(Cc1ccccc1)NC(=O)n1c2ccccc2c2ccccc21 (centres unmarked) [Compound 8]", "> 10000 nM"],
  ["NC(=O)C(=O)[C@H](Cc1ccccc1)NC(=O)c1c(Cl)cccc1Br [Compound 14]", "< 3000 nM"],
  ["NC(=O)C(=O)C(Cc1ccccc1)NC(=O)c1c(Cl)ccc2ccccc12 (centres unmarked) [Compound 13]", "< 3000 nM"],
  ["NC(=O)C(=O)[C@H](Cc1ccccc1)NC(=O)c1c(Cl)cccc1-c1ccccc1 [Compound 21]", "< 3000 nM"],
  ["O=CC(Cc1ccccc1)NC(=O)c1c(Cl)cccc1Br (centres unmarked) [Compound 41]", "< 3000 nM"],
  ["Cn1c2ccccc2c2c(C(=O)NC(C=O)Cc3ccccc3)cccc21 (centres unmarked) [Compound 47]", "< 3000 nM"],
  ["COc1ccc(Cl)cc1C(=O)N[C@@H](Cc1ccccc1)C(=O)C(N)=O [Compound 17]", "< 3000 nM"],
  ["NC(=O)C(=O)[C@H](Cc1ccccc1)NC(=O)c1cc(Cl)ccc1Cl [Compound 22]", "< 3000 nM"],
  ["O=CC(Cc1ccccc1)NC(=O)c1c(C(F)(F)F)ccc(Cl)c1F (centres unmarked) [Compound 38]", "< 3000 nM"],
  ["O=CC(Cc1ccccc1)NC(=O)c1c(F)cccc1C(F)(F)F (centres unmarked) [Compound 39]", "< 3000 nM"],
  ["COc1cccc(OC)c1C(=O)N[C@@H](Cc1ccccc1)C(=O)C(N)=O [Compound 18]", "3000 to 10000 nM"]
]}
